meta.source: patent US20260069656A1

experiment.notes: Intact half-life during simulated gastric fluid (SGF) digestion
reported.conditions: SGF pH 1.5, pepsin:polypeptide 1:20 w/w, 37° C.; produced in E. coli unless otherwise noted

>  <molecule>
SEQID-00546: protein of the 168 nutritive polypeptide library (protein, listed as Saccharomyces cerevisiae, strain ATCC 204508 / S288c) MCSAGGIRRPIQIEEFKTAISGMSDMELAQIKTEIENSINHLQRSNARLGKYIAKLEGADDRLEADDSDDLENIDSGDLALYKDSVRENEIVLNNYNERVDALEQETVYRKTGHGKSKHEVEAKDNTNKGPDVDMDNSNVDVVTPNSIFI

>  <readout.unit>
s

>  <inequality.symbol>
<

>  <SGF Half-life (t½)>
600

$$$$
>  <molecule>
SEQID-00598: nutritive polypeptide naturally produced in Flaxseed, recombinantly expressed in E. coli (protein, listed as Linum usitatissimum) MSRRCPGKNAWPELVGKSGNMAAATVERENRNVHAIVLKEGSAMTKDFRCDRVWVIVNDHGVVTSVPHIT

>  <readout.unit>
s

>  <inequality.symbol>
=

>  <SGF Half-life (t½)>
30

$$$$
>  <molecule>
SEQID-00298 (BS): nutritive polypeptide naturally produced in Cow (protein, listed as Bos taurus) MGLSDGEWQLVLNAWGKVEADVAGHGQEVLIRLFTGHPETLEKFDKFKHLKTEAEMKASEDLKKHGNTVLTALGGILKKKGHHEAEVKHLAESHANKHKIPVKYLEFISDAIIHVLHAKHPSDFGADAQAAMSKALELFRNDMAAQYKVLGFHG

>  <readout.unit>
s

>  <inequality.symbol>
=

>  <SGF Half-life (t½)>
6

$$$$
